In this section we review reported activity coefficient values for a set of molecules.
test_summary: activity coefficient (dimensionless); of the first substance listed, at infinite dilution; xn = mol fraction of the nth substance listed
conditions: 313.15 K; 101 kPa; Liquid; Chromatography; x1 = 0

molecule	activity coefficient
CCCCCCCCCC [decane] + CCCCOP(=O)([O-])OCCCC.CCCCn1cc[n+](C)c1	10
CC(C)CC(C)(C)C [2,2,4-trimethylpentane] + CCCCOP(=O)([O-])OCCCC.CCCCn1cc[n+](C)c1	6.2
CCCCCCCC [octane] + CCCCOP(=O)([O-])OCCCC.CCCCn1cc[n+](C)c1	6.54
